Give measured pIC50 for each item. Keep answers brief.
Test system: ARPE-19 cells
EXPERIMENT: Fibronectin deposition assay in TGFβ-stimulated ARPE-19 cells
Type: cell-based, human
CONDITION DESCRIPTION: Homo sapiens; fibronectin deposition; ARPE-19 cells stimulated with TGFβ, incubated 96 hours; read-out: IC50
pIC50: −log10 of the molar value.

// O=c1[nH]c2ccccc2n1C1CCN(CCCC(c2ccc(F)cc2)c2ccc(F)cc2)CC1 [pimozide] : pIC50 value = ≥ 5.30

// CCN1CCC[C@H]1CNC(=O)c1c(O)c(Cl)cc(Cl)c1OC [raclopride] : pIC50 value = < 5.00

// CCN1CCC[C@H]1CNC(=O)c1c(OC)ccc(Br)c1OC [remoxipride] : pIC50 value = < 5.00

// CN(Cc1cnc2nc(N)nc(N)c2n1)c1ccc(C(=O)N[C@@H](CCC(=O)O)C(=O)O)cc1 [methotrexate] : pIC50 value = < 5.00

// `O=C(CCCN1CCC(n2c(=S)[nH]c3ccccc32)CC1)c1ccc(F)cc1` : pIC50 value = ≥ 5.30

// `O=C1[C@@H]2[C@H]3CC[C@H](C3)[C@@H]2C(=O)N1C[C@@H]1CCCC[C@H]1CN1CCN(c2nsc3ccccc23)CC1` : pIC50 value = ≥ 5.30

// `O=C(CCCN1CCC(n2c(O)nc3ccccc32)CC1)c1ccc(F)cc1` : pIC50 value = ≥ 5.30

// `OC1(c2ccc(Cl)c(C(F)(F)F)c2)CCN(CCCC(c2ccc(F)cc2)c2ccc(F)cc2)CC1` : pIC50 value = ≥ 5.30

// CCc1cc(Cl)c(OC)c(C(=O)NC[C@@H]2CCCN2CC)c1O [eticlopride] : pIC50 value = < 5.00

// CCN1CCCC1CNC(=O)c1cc(S(N)(=O)=O)ccc1OC (centres unmarked) [sulpiride] : pIC50 value = < 5.00

// CCN1CCCC1CNC(=O)c1cc(S(=O)(=O)CC)c(N)cc1OC (centres unmarked) [amisulpride] : pIC50 value = < 5.00

// `CN1CCC(=C2c3ccccc3CCc3sccc32)CC1` : pIC50 value = ≥ 5.30

// `c1ccc2c(c1)Oc1cccnc1N=C2N1CCNCC1` : pIC50 value = ≥ 5.30

// `CCN1CCN(c2cc(-c3ccc(F)cc3)c3c(n2)CCCCCC3)CC1` : pIC50 value = 5.00 to 5.30

Each recorded value in this set is attributed to patent US20250170143A1.
